system: male CF1 mice; test: Hypolipidemic activity in CF1 mice, intraperitoneal dosing (serum cholesterol and triglyceride); type: in vivo; conditions: Mus musculus, ip, 216 h; Table I; 20 mg./kg./day i.p., male CF1 mice, day 9; read-out: Serum Cholesterol Day 9
Readout type: response vs control in vivo at 20 mg/kg (%)
Report as a plain number; the unit % is understood.

Examples with answers:
[BH3-][N+](C)(C)CCCCCCCCCCCC; 103
[BH3-][N+](C)(C)CCCCCC; 66
[BH3-][N+](C)(C)CCCCCCCCCCCCCC; 79
[BH3-][N+](C)(C)CCCCCCCC; 66
[BH3-][N+](C)(C)CCCCCCCCCCCCCCCC; 74
[BH3-][N+](C)(C)CCCCCCCCCCCCCCC; 86
[BH3-][N+](C)(C)CCCCCCCCCC; 51

q: Provide one value: measured response vs control in vivo at 20 mg/kg of "[BH3-][N+](C)(C)Cc1ccccc1"
a: 95
